Origin of measurements: ChEMBL document CHEMBL1201862

system: A549; assay: NCI tumour cell line growth inhibition, 48 h
The source made the active and inactive calls. Cut-off read from the data, not from the text of the source: active = GI50 up to about 1.1 µM and inactive = higher.
Give GI50 for every item shown.

[[record]]
molecule = "O=C(/C=C/c1ccccc1)Oc1ccc(C(=O)/C=C/c2ccccc2)cc1"
result = "25.1 µM (inactive)"

[[record]]
molecule = "C[C@]12CC[C@H]3[C@@H](CC=C4C[C@@H](N5CCCC5)CC[C@@]43C)[C@@H]1C/C(=C\\c1ccc([N+](=O)[O-])cc1)[C@@H]2O"
result = "17.1 µM (inactive)"

[[record]]
molecule = "CC(C)=CCC[C@@H](C)C1=C(O)C(=O)C(C)=C(Nc2ccccc2I)C1=O"
result = "11.8 µM (inactive)"


With those in mind, consider the next molecule.
What GI50 value was documented for this molecule, CCOC(=O)n1cncc1CC(NC(=O)Cc1c(C(=O)C=C(C)C)[nH]c2ccccc12)C(=O)OC (centres undefined) ?
19.2 µM (inactive)

* * *

tested on: A549; assay: NCI tumour cell line growth inhibition, 48 h
Activity calls are given as the source filed them. No stated cut-off is given here; in the data, active = GI50 up to about 1.1 µM and inactive = higher.
measurement.label: GI50

[[record]]
compound = "CN1CN(c2ccccc2)C2(CCN(CCCC3(c4cccs4)OCCO3)CC2)C1=O"
measured_on = "A549"
result = "> 100 µM (inactive)"

[[record]]
compound = "C=CC(Br)(CBr)CCC(Br)C(C)C (stereo unspecified)"
measured_on = "A549"
result = "14.1 µM (inactive)"

[[record]]
compound = "COc1ccc(C[C@H]2COC(=O)[C@@H]2Cc2cccc(Br)c2)cc1OC"
measured_on = "A549"
result = "32.9 µM (inactive)"


Report GI50 for each item below.
1. O=S(=O)(/C=C/CS(=O)(=O)c1ccccc1)c1ccccc1
2. Cc1ccc(-c2n[nH]c(=O)n2N)cc1
3. CC(=O)OCC1OC(n2c(=O)n(-c3ccccc3)c(=O)c3ccccc32)C(OC(C)=O)C(OC(C)=O)C1OC(C)=O (stereo unspecified)

1: 22.4 µM (inactive); 2: > 100 µM (inactive); 3: > 100 µM (inactive)

* * *

Give GI50 for every item shown.
test system: SF-295; assay: NCI tumour cell line growth inhibition, 48 h
The source made the active and inactive calls. No stated cut-off is given here; in the data, active = GI50 up to about 1.1 µM and inactive = higher.

Answered examples (6):
[[record]]
compound = "Oc1nc(S)nc2c1C(c1ccc(Cl)cc1)c1c(O)nc(S)nc1O2"
measurement_label = "GI50"
result = "> 100 µM (inactive)"

[[record]]
compound = "CC(C)(C)OC(=O)N1CCC2(C)CC(=O)CC=C12 (centres undefined)"
measurement_label = "GI50"
result = "> 100 µM (inactive)"

[[record]]
compound = "CCOC(=O)CC(=O)C(=O)NN=C1NCCCN1"
measurement_label = "GI50"
result = "> 100 µM (inactive)"

[[record]]
compound = "Nc1cccc2cc(S(=O)(=O)Nc3ccc(C(=O)O)cc3)ccc12"
measurement_label = "GI50"
result = "> 100 µM (inactive)"

[[record]]
compound = "COc1ccc(C(=O)C(CC2C(=O)CC(C)(C)C(C(=O)C(=O)Nc3c(C)cccc3C)C2=O)c2ccc(OC)cc2)cc1 (centres undefined)"
measurement_label = "GI50"
result = "> 100 µM (inactive)"

[[record]]
compound = "Clc1cccc(Cl)c1C(Nc1nncs1)Nc1nncs1"
measurement_label = "GI50"
result = "38.2 µM (inactive)"


Report GI50 for each item below.
1. c1ccc(CN2CCC(=NN3CCCCC3)CC2)cc1
2. CC(=O)N1c2ccccc2C2=CC3C4C(=O)N(c5ccccc5)C(=O)C4C21C1C(=O)N(c2ccccc2)C(=O)C31 (centres undefined)
3. CC(=O)OC1CCC2(C)C(=CC(C3C=C4CC(OC(C)=O)CCC4(C)C4=C3C3CC5OC6(CCC(C)CO6)C(C)C5C3(C)CC4)C3=C2CCC2(C)C3CC3OC4(CCC(C)CO4)C(C)C32)C1 (centres undefined)

> 100 µM (inactive)
7.06 µM (inactive)
13.2 µM (inactive)
